Source: patent US20200017592A1

# Tested Target: T1, recombinant human IL-36R extracellular domain expressed with a C-terminal myc-myc-hexahistidine tag (human, UniProt Q9HB29 20-337)
# T1 construct: also called hIL-36R-MMH; hIL-36R.mmH
# T1 sequence (Q9HB29 other isoform, or with tags, fused parts or gaps limits assumed): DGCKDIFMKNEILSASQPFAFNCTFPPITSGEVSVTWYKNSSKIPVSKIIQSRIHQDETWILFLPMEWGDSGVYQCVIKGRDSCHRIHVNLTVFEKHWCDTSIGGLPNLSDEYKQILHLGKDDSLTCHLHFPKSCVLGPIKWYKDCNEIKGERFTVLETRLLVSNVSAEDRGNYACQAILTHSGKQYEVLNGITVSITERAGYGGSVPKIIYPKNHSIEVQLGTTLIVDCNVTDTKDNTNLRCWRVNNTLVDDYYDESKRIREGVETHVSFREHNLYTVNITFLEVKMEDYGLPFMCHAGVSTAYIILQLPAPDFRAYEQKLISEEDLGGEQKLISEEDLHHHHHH
# Test: SPR (Biacore 4000), mAb captured on anti-human Fc, 37°C
# Description: Equilibrium dissociation constants (KD values) for IL-36R binding to purified anti-IL-36R antibodies were determined using a real-time surface plasmon resonance biosensor using a Biacore 4000 instrument. […] Kinetic association rate constant (kₐ) and dissociation rate constant (kd) were determined by fitting the real-time sensorgrams to a 1:1 binding model using Scrubber 2.0c curve fitting software. […]
Measured Metric: kon

# count of solved cases: 2
H4H14708P2 (antibody, human IgG4 S228P, kappa, V domains shown) VH: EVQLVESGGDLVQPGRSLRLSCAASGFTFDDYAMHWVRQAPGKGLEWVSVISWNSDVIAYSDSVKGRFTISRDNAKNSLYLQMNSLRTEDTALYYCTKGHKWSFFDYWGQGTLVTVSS VL: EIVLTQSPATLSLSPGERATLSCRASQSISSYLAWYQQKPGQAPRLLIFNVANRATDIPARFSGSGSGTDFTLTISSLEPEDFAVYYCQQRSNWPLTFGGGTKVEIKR: 136000 M⁻¹ s⁻¹
H4H14709P (antibody, human IgG4 S228P, kappa, V domains shown) VH: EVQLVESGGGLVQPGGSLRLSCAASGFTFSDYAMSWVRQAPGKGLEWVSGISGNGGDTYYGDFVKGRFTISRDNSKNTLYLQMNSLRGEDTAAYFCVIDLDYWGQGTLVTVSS VL: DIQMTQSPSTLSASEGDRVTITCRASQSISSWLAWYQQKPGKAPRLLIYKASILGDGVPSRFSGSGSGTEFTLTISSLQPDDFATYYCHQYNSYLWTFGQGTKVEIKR: 131000 M⁻¹ s⁻¹

Problem: Record request: kon value, item H4H14699P2 (antibody, human IgG4 S228P, kappa, V domains shown, Fully human anti-IL-36R antibody) VH: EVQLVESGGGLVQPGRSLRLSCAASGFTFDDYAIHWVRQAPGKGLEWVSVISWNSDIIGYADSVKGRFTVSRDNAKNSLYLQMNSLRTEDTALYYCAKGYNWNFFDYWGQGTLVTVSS VL: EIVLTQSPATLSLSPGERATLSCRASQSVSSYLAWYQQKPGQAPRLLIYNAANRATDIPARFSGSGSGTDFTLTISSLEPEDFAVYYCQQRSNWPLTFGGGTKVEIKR
Solution: 142000 M⁻¹ s⁻¹

Problem: Also, H4H14757P (antibody, human IgG4 S228P, kappa, V domains shown) VH: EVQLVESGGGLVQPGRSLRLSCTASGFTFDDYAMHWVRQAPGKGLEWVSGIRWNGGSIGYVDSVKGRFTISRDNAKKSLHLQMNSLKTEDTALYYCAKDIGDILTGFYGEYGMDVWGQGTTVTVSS VL: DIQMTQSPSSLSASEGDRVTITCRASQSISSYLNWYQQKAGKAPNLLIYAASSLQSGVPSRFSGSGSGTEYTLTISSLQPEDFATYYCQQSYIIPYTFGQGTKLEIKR please.
Solution: 210000 M⁻¹ s⁻¹

Problem: Also, H4H14728P (antibody, human IgG4 S228P, kappa, V domains shown) VH: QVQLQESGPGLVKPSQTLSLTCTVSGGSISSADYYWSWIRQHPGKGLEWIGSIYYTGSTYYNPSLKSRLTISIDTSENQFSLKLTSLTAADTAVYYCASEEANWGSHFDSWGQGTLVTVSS VL: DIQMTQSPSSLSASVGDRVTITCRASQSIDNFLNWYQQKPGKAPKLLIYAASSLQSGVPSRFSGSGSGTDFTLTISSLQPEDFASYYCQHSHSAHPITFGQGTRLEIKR please.
Solution: 136000 M⁻¹ s⁻¹

Problem: Also, H4H14758P (antibody, human IgG4 S228P, kappa, V domains shown) VH: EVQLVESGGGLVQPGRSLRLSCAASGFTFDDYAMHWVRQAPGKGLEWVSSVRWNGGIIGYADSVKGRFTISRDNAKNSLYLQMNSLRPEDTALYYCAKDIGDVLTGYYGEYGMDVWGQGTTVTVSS VL: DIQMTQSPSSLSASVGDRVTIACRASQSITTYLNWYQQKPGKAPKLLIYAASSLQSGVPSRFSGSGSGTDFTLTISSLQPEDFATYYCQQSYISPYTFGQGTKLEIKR please.
Solution: 158000 M⁻¹ s⁻¹
